Test system: SEM cells
Procedure text: cell viability relative to DMSO control; higher = less cytotoxic
Measurement setup: RPMI 5 mM glucose + 10% dialyzed FBS; 48 h; 0.19 µM
Known cell viability of a selection of compounds
Parameter: cell viability (%)

compound=C[C@]1(c2nc3c(C(N)=O)cccc3[nH]2)CCCN1 measured_on="SEM cells" unit_symbol=% readout_value=79
compound=CSCC[C@@H](NC(=O)[C@@H](Cc1ccccc1)NC(=O)CNC(=O)CNC(=O)[C@@H](N)Cc1ccc(O)cc1)C(=O)O measured_on="SEM cells" unit_symbol=% readout_value=103
compound=CCn1c(-c2nonc2N)nc2cnc(Oc3cccc(NC(=O)c4ccc(OCCN5CCOCC5)cc4)c3)cc21 measured_on="SEM cells" unit_symbol=% readout_value=102
compound=Cc1cnc(NC(=O)Nc2cc(Br)c(C)cc2OC[C@@H]2CNCCO2)cn1 measured_on="SEM cells" unit_symbol=% readout_value=98.1
compound="C/C=C1\\C2C=C(C)CC1(N)c1ccc(=O)[nH]c1C2 (stereo not given)" measured_on="SEM cells" unit_symbol=% readout_value=115
compound=Cc1c(NC(=O)OC[C@@H]2COCCN2)cn2ncnc(Nc3ccc4c(cnn4Cc4cccc(F)c4)c3)c12 measured_on="SEM cells" unit_symbol=% readout_value=84
compound=O=C(Nc1ccc(F)c(C(F)(F)F)c1)Nc1nnc(-c2ccncc2)s1 measured_on="SEM cells" unit_symbol=% readout_value=117
compound="CC(N)C12CC3CC(CC(C3)C1)C2 (stereo not given)" measured_on="SEM cells" unit_symbol=% readout_value=115
compound=N[C@H](CSC(c1ccccc1)(c1ccccc1)c1ccccc1)C(=O)O measured_on="SEM cells" unit_symbol=% readout_value=95.6
compound="CCC(C)(Oc1ccc(C2(c3ccc(OC(C)(CC)C(=O)O)cc3)CCCCC2)cc1)C(=O)O (stereo not given)" measured_on="SEM cells" unit_symbol=% readout_value=102

----------
Tested on: NOMO1
Procedure text: cell viability relative to DMSO control; higher = less cytotoxic
Measurement setup: RPMI 5 mM glucose + 10% FBS; 48 h; 15.4 µM
Parameter: cell viability (%)

compound=COc1ccc(-c2nc(N3CCOCC3)c3sc(CN(C)c4ncc(C(=O)NO)cn4)cc3n2)cn1 readout_value=7.28
compound="C[N]1C=C(C2=C1C=CC=C2)\\C3=C(\\C(=O)NC3=O)C4=C5CC(CN)CC[N]5C6=C4C=CC=C6 (centres undefined)" readout_value=81.3
compound=CC(C)C[C@H](NC(=O)[C@H](CCc1ccccc1)NC(=O)CN1CCOCC1)C(=O)N[C@@H](Cc1ccccc1)C(=O)N[C@@H](CC(C)C)C(=O)[C@@]1(C)CO1 readout_value=-0.195
compound=Cn1cnc2c1c(=O)[nH]c(=O)n2C readout_value=91.6

----------
Tested on: P12-Ichikawa
Procedure text: cell viability relative to DMSO control; higher = less cytotoxic
Measurement setup: RPMI 5 mM glucose + 10% dialyzed FBS; 48 h; 0.19 µM
Parameter: cell viability

compound="CNC1CCC(N(Cc2cccc(-c3ccncc3)c2)C(=O)c2sc3c(F)ccc(F)c3c2Cl)CC1 (centres undefined)" readout_value=105%
compound=COc1cc(OC)c(/C=C/[S+](=O)([O-])Cc2ccc(OC)c(NCC(=O)[O][Na])c2)c(OC)c1 readout_value=50.1%
compound=CN(C)[C@H]\1[C@@H]2C[C@H]3C(=C(O)\[C@]2(O)C(=O)\C(=C1O)C(N)=O)/C(=O)C4=C(O)C=CC=C4[C@@]3(C)O readout_value=116%
compound="CCC(C)(C)c1ccc(CC(C)CN2C[C@@H](C)O[C@@H](C)C2)cc1 (some centres undefined)" readout_value=80.6%

----------
System: P12-Ichikawa
Procedure text: cell viability relative to DMSO control; higher = less cytotoxic
Measurement setup: HPLM + 10% dialyzed FBS; 48 h; 1.71 µM
Parameter: cell viability

compound=CSCC[C@@H](NC(=O)[C@@H](Cc1ccccc1)NC(=O)CNC(=O)CNC(=O)[C@@H](N)Cc1ccc(O)cc1)C(=O)O measured_on=P12-Ichikawa parameter="cell viability" readout_value=104%
compound=FC1=CC=C(SC/2=N/N3\C=N/C(=O)/C(=C3/C=C2)C4=C(Cl)C=CC=C4Cl)C(=C1)F measured_on=P12-Ichikawa parameter="cell viability" readout_value=114%
compound=COc1cc2c(cc1OC)CC(=O)N(CCCN(C)C[C@H]1Cc3cc(OC)c(OC)cc31)CC2.Cl measured_on=P12-Ichikawa parameter="cell viability" readout_value=114%
compound=CO[C@@H]1COCC[C@@H]1N[C@@H]1CC[C@@](C(=O)N2CCc3ncc(C(F)(F)F)cc3C2)(C(C)C)C1 measured_on=P12-Ichikawa parameter="cell viability" readout_value=126%
compound=Cn1cnc2c1c(=O)[nH]c(=O)n2C measured_on=P12-Ichikawa parameter="cell viability" readout_value=108%
compound=C[C@]12CCC(=O)C=C1CC[C@@H]1[C@@H]2CC[C@@]2(C)[C@H]1CC[C@]2(C)O measured_on=P12-Ichikawa parameter="cell viability" readout_value=104%
compound=S=P(N1CC1)(N1CC1)N1CC1 measured_on=P12-Ichikawa parameter="cell viability" readout_value=97.4%
compound=CCN1\C=C(\C(O)=O)C(=O)C2=CC=C(C)N=C12 measured_on=P12-Ichikawa parameter="cell viability" readout_value=97.6%
compound=CC(C)=CC[C@@H](O)C/1=C/C(=O)C2=C(O)C=CC(=C2C1=O)O measured_on=P12-Ichikawa parameter="cell viability" readout_value=111%
compound=NC/1=N/C2=C([NH]C=N2)C(=S)N1 measured_on=P12-Ichikawa parameter="cell viability" readout_value=119%
compound=Nc1ncnc2c1c(-c1cnc3[nH]ccc3c1)nn2C1CCCC1 measured_on=P12-Ichikawa parameter="cell viability" readout_value=81.3%
compound=CN(C)C1=CC=C(C=C1)C(C2=CC=C(C=C2)N(C)C)=C/3\C=C/C(/C=C3)=[N+](C)C measured_on=P12-Ichikawa parameter="cell viability" readout_value=1.52%
compound=C[C@@]12C[C@@]3(O)O[C@@H](O1)[C@]1(COC(=O)c4ccccc4)[C@H]3C[C@@]12O[C@@H]1O[C@H](CO)[C@@H](O)[C@H](O)[C@H]1O measured_on=P12-Ichikawa parameter="cell viability" readout_value=108%
compound=O=C(Nc1c(Cl)cncc1Cl)c1ccc(OC(F)F)c(OCC2CC2)c1 measured_on=P12-Ichikawa parameter="cell viability" readout_value=115%
compound=C\C1=C(\C=C(C#N)/C(=O)N1)C2=C[N]3C=CN=C3C=C2 measured_on=P12-Ichikawa parameter="cell viability" readout_value=88.5%
compound="OC1CCC(Nc2ncc3nc(Nc4c(F)cc(F)cc4F)n([C@@H]4CCOC4)c3n2)CC1 (some centres undefined)" measured_on=P12-Ichikawa parameter="cell viability" readout_value=124%
compound=CN1CCCN=C1/C=C/c1cccs1.O=C(O)c1cc2ccccc2c(Cc2c(O)c(C(=O)O)cc3ccccc23)c1O measured_on=P12-Ichikawa parameter="cell viability" readout_value=111%
compound=COC1=C2OC(=O)\C=C/C2=CC3=C1OC=C3 measured_on=P12-Ichikawa parameter="cell viability" readout_value=102%
compound=C[C@]1(c2nc3c(C(N)=O)cccc3[nH]2)CCCN1 measured_on=P12-Ichikawa parameter="cell viability" readout_value=83.2%

----------
System: NOMO1
Procedure text: cell viability relative to DMSO control; higher = less cytotoxic
Measurement setup: HPLM + 10% dialyzed FBS; 48 h; 0.0632 µM
Here, each record is paired with measured cell viability data.
Parameter: cell viability (%)

compound=S=P(N1CC1)(N1CC1)N1CC1 readout_value=98.5
compound=O=C(O[C@H]1C[C@H]2CC[C@@H](C1)[N+]21CCCC1)C(O)(c1ccccc1)c1ccccc1.[Cl-] readout_value=124
compound="CNC1CCC(N(Cc2cccc(-c3ccncc3)c2)C(=O)c2sc3c(F)ccc(F)c3c2Cl)CC1 (stereo not given)" readout_value=127
compound=O=C(Nc1c(Cl)cncc1Cl)c1ccc(OC(F)F)c(OCC2CC2)c1 readout_value=123
compound=O=C(NC[C@H](O)CO)c1ccncc1Nc1ccc(I)cc1F readout_value=82.2
compound="COc1ccc(C2CNC(=O)C2)cc1OC1CCCC1 (stereo not given)" readout_value=122
compound=O=C(Nc1ccc(F)c(C(F)(F)F)c1)Nc1nnc(-c2ccncc2)s1 readout_value=134
compound="CCC(C)(Oc1ccc(C2(c3ccc(OC(C)(CC)C(=O)O)cc3)CCCCC2)cc1)C(=O)O (stereo not given)" readout_value=118
compound=COc1cc2ncnc(Nc3cc(Br)c(O)c(Br)c3)c2cc1OC readout_value=107
compound=C[C@]12CCC(=O)C=C1CC[C@@H]1[C@@H]2CC[C@@]2(C)[C@H]1CC[C@]2(C)O readout_value=110
compound=C=C[C@H]1CN2CC[C@H]1C[C@H]2[C@H](O)c1ccnc2ccc(OC)cc12 readout_value=105
compound=OC1=CC2=C(C(=C1)O)C(=O)\C=C(/O2)C3=CC=CC=C3 readout_value=109
compound=COc1ncc(-c2ccc3nccc(-c4ccnnc4)c3c2)cc1N[S+](=O)([O-])c1ccc(F)cc1F readout_value=75.1
compound=CN1C[C@H]2c3ccccc3Oc3ccc(Cl)cc3[C@@H]2C1 readout_value=85.6
compound=O=c1[nH]c2ccccc2n1C1CCN(Cc2ccc(-c3nc4cc5nc[nH]c5cc4nc3-c3ccccc3)cc2)CC1 readout_value=133
compound=CNc1nccc(-c2cccnc2Oc2cc(C(=O)Nc3cccc(C(F)(F)F)c3)ccc2C)n1 readout_value=130
compound=C[C@@H]\1CC(=O)N\N=C1C2=CC=C(NN=C(C#N)C#N)C=C2 readout_value=99.9
compound=COc1ccc(C(C)=O)c(O)c1 readout_value=111
compound=O=C(Nc1cc2cc[nH]c2cn1)c1ccccc1 readout_value=108
compound=COc1ccc(-c2nc(N3CCOCC3)c3sc(CN(C)c4ncc(C(=O)NO)cn4)cc3n2)cn1 readout_value=12.6

Values from the supplement of paper PMC11451515
